method: Solubility of the compound in form of solid dispersion in phosphate buffer at pH 6.8
Assay type: physicochemical
readoutName: solubility
Please format your answer as a value with the unit trailing.

// solubility lookup, key: N#Cc1c(Oc2ccc(F)c(NC(=O)Cc3cccc(C(F)(F)F)c3)c2)ccc2nc(NC(=O)C3CC3)sc12
740 µg/mL

* * *

method: Total clearance in dog at 1 mg/kg, iv
Format: ADME, organism-based, Canis lupus familiaris
Design: dose 1 mg/kg, route intravenous
conditionLabel: in vivo
readoutName: clearance (mL/min/kg)
Give bare numbers, in mL/min/kg.

// clearance lookup, key: N#Cc1c(Oc2ccc(F)c(NC(=O)Cc3cccc(C(F)(F)F)c3)c2)ccc2nc(NC(=O)C3CC3)sc12
11.7

* * *

method: Volume of distribution at steady state in dog at 1 mg/kg, iv
Assay type: ADME, organism-based, Canis lupus familiaris
Design: dose 1 mg/kg, route intravenous
conditionLabel: in vivo, read-out: Vdss
readoutName: Vd (L/kg)
One number for each entry, in L/kg.

// Vd lookup, key: N#Cc1c(Oc2ccc(F)c(NC(=O)Cc3cccc(C(F)(F)F)c3)c2)ccc2nc(NC(=O)C3CC3)sc12
1.57

* * *

testedSystem: CDK2/Cyclin A2 (Homo sapiens, UniProt P24941)
method: Inhibition of CDK2/CycA (unknown origin) using histone H1 as substrate after 20 mins
readoutName: pIC50
Numbers only, as −log10 of the molar value.

Form: Entry = N#Cc1c(Oc2ccc(F)c(NC(=O)Cc3cccc(C(F)(F)F)c3)c2)ccc2nc(NC(=O)C3CC3)sc12 | System = CDK2/Cyclin A2 (Homo sapiens, UniProt P24941) | pIC50 = ____
6.24

* * *

testedSystem: Serine/threonine-protein kinase B-raf (Homo sapiens, UniProt P15056)
method: Inhibition of N-terminal FLAG-tagged wild type BRAF (unknown origin) expressed in baculovirus system using GST-MEK1(K96R) as substrate after 20 mins
readoutName: pIC50
Give bare numbers, as −log10 of the molar value.

// pIC50 lookup, key: N#Cc1c(Oc2ccc(F)c(NC(=O)Cc3cccc(C(F)(F)F)c3)c2)ccc2nc(NC(=O)C3CC3)sc12
8.08

* * *

method: Mean residence time in dog at 1 mg/kg, iv
Type: ADME, organism-based, Canis lupus familiaris
Design: dose 1 mg/kg, route intravenous
conditionLabel: in vivo
readoutName: MRT (h)
Give bare numbers, in h.

// MRT lookup, key: N#Cc1c(Oc2ccc(F)c(NC(=O)Cc3cccc(C(F)(F)F)c3)c2)ccc2nc(NC(=O)C3CC3)sc12
2.23

* * *

testedSystem: Serine/threonine-protein kinase B-raf (Homo sapiens, UniProt P15056, V600E)
Sequence (P15056 2-766 V600E limits assumed): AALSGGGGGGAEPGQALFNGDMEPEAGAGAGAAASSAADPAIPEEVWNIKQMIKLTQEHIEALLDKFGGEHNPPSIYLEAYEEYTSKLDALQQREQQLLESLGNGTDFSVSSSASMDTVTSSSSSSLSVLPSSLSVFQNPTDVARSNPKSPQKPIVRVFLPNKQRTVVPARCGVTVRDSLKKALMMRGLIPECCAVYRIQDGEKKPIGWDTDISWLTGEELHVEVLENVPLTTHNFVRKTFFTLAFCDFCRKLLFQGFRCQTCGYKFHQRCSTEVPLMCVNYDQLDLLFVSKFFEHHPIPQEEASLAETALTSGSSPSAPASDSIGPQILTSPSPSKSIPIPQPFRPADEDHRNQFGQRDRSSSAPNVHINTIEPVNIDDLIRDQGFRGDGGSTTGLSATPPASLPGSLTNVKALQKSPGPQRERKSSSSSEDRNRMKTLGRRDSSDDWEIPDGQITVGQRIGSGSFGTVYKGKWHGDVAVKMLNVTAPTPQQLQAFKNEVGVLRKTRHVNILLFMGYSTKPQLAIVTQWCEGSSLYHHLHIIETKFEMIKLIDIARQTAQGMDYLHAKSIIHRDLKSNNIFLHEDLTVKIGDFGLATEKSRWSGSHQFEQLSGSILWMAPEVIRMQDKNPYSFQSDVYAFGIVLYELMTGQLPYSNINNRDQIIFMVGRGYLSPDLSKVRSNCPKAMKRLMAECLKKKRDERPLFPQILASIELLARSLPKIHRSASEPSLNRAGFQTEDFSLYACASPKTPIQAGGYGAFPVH
method: Inhibition of BRAF V600E mutant (unknown origin) in presence of 1000 uM ATP by ELISA
readoutName: IC50 (nM)
Answers are plain numbers, in nM.

// IC50 lookup, key: N#Cc1c(Oc2ccc(F)c(NC(=O)Cc3cccc(C(F)(F)F)c3)c2)ccc2nc(NC(=O)C3CC3)sc12
58

* * *

testedSystem: Insulin receptor (Homo sapiens)
Sequence (P06213 28-758 limits assumed): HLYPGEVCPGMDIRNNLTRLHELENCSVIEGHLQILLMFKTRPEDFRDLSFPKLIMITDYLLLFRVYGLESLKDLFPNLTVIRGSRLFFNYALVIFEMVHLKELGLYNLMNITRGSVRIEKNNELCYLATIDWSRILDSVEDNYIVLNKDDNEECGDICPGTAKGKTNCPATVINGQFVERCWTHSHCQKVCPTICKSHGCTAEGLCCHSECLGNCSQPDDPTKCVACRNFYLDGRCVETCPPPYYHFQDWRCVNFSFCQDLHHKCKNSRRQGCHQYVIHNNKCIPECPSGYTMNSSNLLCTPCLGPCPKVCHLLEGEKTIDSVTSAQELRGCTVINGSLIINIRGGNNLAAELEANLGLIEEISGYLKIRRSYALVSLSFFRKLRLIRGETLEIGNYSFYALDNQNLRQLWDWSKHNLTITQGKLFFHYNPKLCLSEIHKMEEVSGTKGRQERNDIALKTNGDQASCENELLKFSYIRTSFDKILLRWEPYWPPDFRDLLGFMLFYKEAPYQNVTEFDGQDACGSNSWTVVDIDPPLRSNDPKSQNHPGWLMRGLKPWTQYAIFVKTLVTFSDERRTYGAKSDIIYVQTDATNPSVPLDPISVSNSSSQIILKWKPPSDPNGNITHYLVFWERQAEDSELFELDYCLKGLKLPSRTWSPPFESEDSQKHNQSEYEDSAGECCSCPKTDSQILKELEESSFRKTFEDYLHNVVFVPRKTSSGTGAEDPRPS
Sequence (P06213 763-1382 limits assumed): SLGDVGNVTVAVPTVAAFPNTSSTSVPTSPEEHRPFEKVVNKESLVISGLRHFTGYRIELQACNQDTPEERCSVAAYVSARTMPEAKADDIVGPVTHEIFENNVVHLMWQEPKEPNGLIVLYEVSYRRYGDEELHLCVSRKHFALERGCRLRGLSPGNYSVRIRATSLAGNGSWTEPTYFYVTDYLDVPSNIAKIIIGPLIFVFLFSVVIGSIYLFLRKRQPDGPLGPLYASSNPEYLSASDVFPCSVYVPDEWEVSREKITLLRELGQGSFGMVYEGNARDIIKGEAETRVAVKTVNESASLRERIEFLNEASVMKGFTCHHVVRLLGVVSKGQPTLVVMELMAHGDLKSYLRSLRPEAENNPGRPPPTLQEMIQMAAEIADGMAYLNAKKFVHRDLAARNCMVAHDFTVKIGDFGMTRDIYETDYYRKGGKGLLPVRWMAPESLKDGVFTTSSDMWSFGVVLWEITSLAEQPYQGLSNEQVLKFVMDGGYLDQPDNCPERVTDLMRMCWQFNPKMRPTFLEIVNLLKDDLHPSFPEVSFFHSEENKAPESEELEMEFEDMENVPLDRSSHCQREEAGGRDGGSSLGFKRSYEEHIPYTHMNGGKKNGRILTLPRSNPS
pIC50: −log10 of the molar value.
readoutName: pIC50

Form: Entry = N#Cc1c(Oc2ccc(F)c(NC(=O)Cc3cccc(C(F)(F)F)c3)c2)ccc2nc(NC(=O)C3CC3)sc12 | System = Insulin receptor (Homo sapiens) | pIC50 = ____
< 5.00

* * *

testedSystem: Mitogen-activated protein kinase 8 (Homo sapiens, UniProt P45983)
Sequence (P45983 whole entry): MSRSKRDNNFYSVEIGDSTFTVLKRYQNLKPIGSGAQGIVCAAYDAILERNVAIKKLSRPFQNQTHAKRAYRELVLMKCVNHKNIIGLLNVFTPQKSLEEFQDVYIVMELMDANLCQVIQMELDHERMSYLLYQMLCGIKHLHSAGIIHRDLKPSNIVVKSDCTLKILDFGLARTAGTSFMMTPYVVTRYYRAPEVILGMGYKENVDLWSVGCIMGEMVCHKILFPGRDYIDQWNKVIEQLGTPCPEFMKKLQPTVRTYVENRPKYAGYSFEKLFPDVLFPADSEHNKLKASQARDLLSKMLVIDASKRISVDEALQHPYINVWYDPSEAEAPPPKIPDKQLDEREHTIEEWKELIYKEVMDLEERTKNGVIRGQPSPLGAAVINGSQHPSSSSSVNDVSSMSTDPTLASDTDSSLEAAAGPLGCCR
method: Inhibition of C-terminal FLAG-tagged JNK1 (unknown origin) expressed in baculovirus system using c-jun as substrate after 60 mins
readoutName: IC50

// IC50 lookup, key: N#Cc1c(Oc2ccc(F)c(NC(=O)Cc3cccc(C(F)(F)F)c3)c2)ccc2nc(NC(=O)C3CC3)sc12
> 10 µM

* * *

Organism: Homo sapiens
method: Selectivity factor, ratio of IC50 for VEGFR2 (unknown origin) to IC50 for N-terminal FLAG-tagged recombinant BRAF-V600E (unknown origin) expressed in baculovirus system
Would you mind telling me the reported Ratio IC50 of each entry?
Give bare numbers.

Reference set, count: 3
INSERT INTO assay_data (samplesmiles, observed) VALUES
  ('COC(=O)c1c(Oc2cccc(NC(=O)c3cccc(C(C)(C)C#N)c3)c2)ccc2nc(NC(=O)C3CC3)sc12', 2.8),
  ('N#Cc1c(Oc2cccc(NC(=O)Nc3ccccc3C(F)(F)F)c2)ccc2nc(NC(=O)C3CC3)sc12', 6.3),
  ('CC(C)(C#N)c1cccc(C(=O)Nc2cccc(Oc3ccc4nc(NC(=O)C5CC5)sc4c3C(=O)O)c2)c1', 0.051);

Below is a list of compounds. For each, state its recorded Ratio IC50.
1. CC(C)(C#N)c1cccc(C(=O)Nc2cccc(Oc3ccc4nc(NC(=O)C5CC5)sc4c3[N+](=O)[O-])c2)c1
2. CC(C)(C#N)c1cccc(C(=O)Nc2cccc(Oc3ccc4nc(NC(=O)C5CC5)sc4c3)c2)c1
3. N#Cc1c(Oc2cccc(NC(=O)Nc3cccc(C(F)(F)F)c3)c2)ccc2nc(NC(=O)C3CC3)sc12
4. N#Cc1c(Oc2cccc(NC(=O)Nc3ccc(C(F)(F)F)cc3)c2)ccc2nc(NC(=O)C3CC3)sc12
5. N#Cc1c(Oc2cccc(NC(=O)Cc3ccccc3C(F)(F)F)c2)ccc2nc(NC(=O)C3CC3)sc12
6. CC(C)(C#N)c1cccc(C(=O)Nc2cccc(Oc3ccc4nc(NC(=O)C5CC5)sc4c3CO)c2)c1
7. N#Cc1c(Oc2ccc(F)c(NC(=O)Nc3cccc(C(F)(F)F)c3)c2)ccc2nc(NC(=O)C3CC3)sc12

2.8
0.56
19
18
7.1
0.31
15

Below is a list of compounds. For each, state its recorded Ratio IC50.
1. N#Cc1c(Oc2ccc(F)c(NC(=O)Cc3cccc(C(F)(F)F)c3)c2)ccc2nc(NC(=O)C3CC3)sc12
2. CC(C)(C#N)c1cccc(C(=O)Nc2cccc(Oc3ccc4nc(NC(=O)C5CC5)sc4c3C#N)c2)c1
3. N#Cc1c(Oc2ccc(F)c(NC(=O)Nc3ccc(C(F)(F)F)cc3)c2)ccc2nc(NC(=O)C3CC3)sc12

67
5.8
25

Below is a list of compounds. For each, state its recorded Ratio IC50.
1. N#Cc1c(Oc2cccc(NC(=O)Cc3ccc(C(F)(F)F)cc3)c2)ccc2nc(NC(=O)C3CC3)sc12
2. N#Cc1c(Oc2cccc(NC(=O)Cc3cccc(C(F)(F)F)c3)c2)ccc2nc(NC(=O)C3CC3)sc12

1. 20
2. 120

* * *

method: Mean residence time in rat at 25 mg/kg, po
Type: ADME, organism-based
Set-up: dose 25 mg/kg, route oral
conditionLabel: in vivo
readoutName: MRT (h)
Give bare numbers, in h.

// MRT lookup, key: N#Cc1c(Oc2ccc(F)c(NC(=O)Cc3cccc(C(F)(F)F)c3)c2)ccc2nc(NC(=O)C3CC3)sc12
6.27

* * *

method: AUC (0 to 24 hrs) in dog at 1 mg/kg, iv
Type: ADME, organism-based, Canis lupus familiaris
Design: time < 24 hr, dose 1 mg/kg, route intravenous
conditionLabel: plasma
readoutName: AUC(0-t) at 24 h (ng·h/mL)
Answers are plain numbers, in ng·h/mL.

// AUC(0-t) at 24 h lookup, key: N#Cc1c(Oc2ccc(F)c(NC(=O)Cc3cccc(C(F)(F)F)c3)c2)ccc2nc(NC(=O)C3CC3)sc12
1430

* * *

testedSystem: RAF proto-oncogene serine/threonine-protein kinase (Homo sapiens)
readoutName: pKd
Give bare numbers, as −log10 of the molar value.

// pKd lookup, key: N#Cc1c(Oc2ccc(F)c(NC(=O)Cc3cccc(C(F)(F)F)c3)c2)ccc2nc(NC(=O)C3CC3)sc12
9.28

* * *

testedSystem: Aurora kinase B (Homo sapiens, UniProt Q96GD4)
Sequence (Q96GD4 whole entry): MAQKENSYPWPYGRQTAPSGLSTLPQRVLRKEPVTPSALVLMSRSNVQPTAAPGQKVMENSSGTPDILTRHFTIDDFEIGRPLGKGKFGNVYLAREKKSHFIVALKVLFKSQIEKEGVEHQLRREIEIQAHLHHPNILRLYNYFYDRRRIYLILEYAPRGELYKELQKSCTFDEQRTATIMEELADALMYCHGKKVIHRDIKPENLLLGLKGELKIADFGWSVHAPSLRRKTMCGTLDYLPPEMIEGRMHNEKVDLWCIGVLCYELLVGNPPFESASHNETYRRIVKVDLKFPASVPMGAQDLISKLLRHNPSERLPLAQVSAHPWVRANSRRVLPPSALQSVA
readoutName: pIC50
One number for each entry, as −log10 of the molar value.

// pIC50 lookup, key: N#Cc1c(Oc2ccc(F)c(NC(=O)Cc3cccc(C(F)(F)F)c3)c2)ccc2nc(NC(=O)C3CC3)sc12
7.18

* * *

testedSystem: Vascular endothelial growth factor receptor 2 (Homo sapiens, UniProt P35968)
Sequence (P35968 whole entry): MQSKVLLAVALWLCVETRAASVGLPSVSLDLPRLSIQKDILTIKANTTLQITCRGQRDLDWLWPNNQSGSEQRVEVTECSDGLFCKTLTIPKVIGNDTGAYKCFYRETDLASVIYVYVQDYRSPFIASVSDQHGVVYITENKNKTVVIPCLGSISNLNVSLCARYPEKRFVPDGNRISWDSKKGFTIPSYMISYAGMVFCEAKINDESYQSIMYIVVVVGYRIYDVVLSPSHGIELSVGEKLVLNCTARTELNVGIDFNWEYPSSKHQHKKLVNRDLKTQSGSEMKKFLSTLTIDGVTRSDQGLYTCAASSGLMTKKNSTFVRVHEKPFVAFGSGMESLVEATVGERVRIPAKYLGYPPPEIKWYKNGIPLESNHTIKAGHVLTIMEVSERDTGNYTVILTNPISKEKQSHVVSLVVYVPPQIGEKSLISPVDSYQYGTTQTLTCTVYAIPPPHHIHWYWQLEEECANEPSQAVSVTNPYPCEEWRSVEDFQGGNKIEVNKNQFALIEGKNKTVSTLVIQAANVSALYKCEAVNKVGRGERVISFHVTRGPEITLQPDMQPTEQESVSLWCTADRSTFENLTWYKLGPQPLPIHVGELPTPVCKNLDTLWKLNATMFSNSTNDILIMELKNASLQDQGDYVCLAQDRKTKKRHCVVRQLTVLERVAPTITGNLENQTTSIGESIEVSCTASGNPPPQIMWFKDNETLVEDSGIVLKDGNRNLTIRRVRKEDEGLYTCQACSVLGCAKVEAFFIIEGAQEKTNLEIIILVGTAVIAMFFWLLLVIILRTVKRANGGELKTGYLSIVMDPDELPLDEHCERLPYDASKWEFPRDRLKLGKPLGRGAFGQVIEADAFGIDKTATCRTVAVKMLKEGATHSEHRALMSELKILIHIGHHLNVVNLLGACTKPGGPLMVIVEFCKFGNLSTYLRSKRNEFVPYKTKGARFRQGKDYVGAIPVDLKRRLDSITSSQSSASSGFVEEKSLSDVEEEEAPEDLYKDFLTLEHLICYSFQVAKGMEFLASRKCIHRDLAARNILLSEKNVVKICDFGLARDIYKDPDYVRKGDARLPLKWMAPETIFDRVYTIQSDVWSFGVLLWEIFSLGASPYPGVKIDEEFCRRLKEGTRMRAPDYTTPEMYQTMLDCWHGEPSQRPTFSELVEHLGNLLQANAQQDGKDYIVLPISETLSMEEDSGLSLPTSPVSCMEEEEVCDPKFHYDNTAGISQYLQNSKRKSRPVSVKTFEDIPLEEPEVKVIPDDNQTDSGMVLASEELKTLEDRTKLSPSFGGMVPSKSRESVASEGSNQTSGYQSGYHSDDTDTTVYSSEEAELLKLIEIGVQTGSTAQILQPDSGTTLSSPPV
method: Inhibition of VEGFR2 (unknown origin)
readoutName: IC50 (nM)
One number for each entry, in nM.

// IC50 lookup, key: N#CC1(c2cccc(C(=O)Nc3cc(Oc4ccc5nc(NC(=O)C6CC6)sc5n4)ccc3F)c2Cl)CC1
2.8

* * *

testedSystem: RAF proto-oncogene serine/threonine-protein kinase (Homo sapiens, UniProt P04049)
Sequence (P04049 whole entry): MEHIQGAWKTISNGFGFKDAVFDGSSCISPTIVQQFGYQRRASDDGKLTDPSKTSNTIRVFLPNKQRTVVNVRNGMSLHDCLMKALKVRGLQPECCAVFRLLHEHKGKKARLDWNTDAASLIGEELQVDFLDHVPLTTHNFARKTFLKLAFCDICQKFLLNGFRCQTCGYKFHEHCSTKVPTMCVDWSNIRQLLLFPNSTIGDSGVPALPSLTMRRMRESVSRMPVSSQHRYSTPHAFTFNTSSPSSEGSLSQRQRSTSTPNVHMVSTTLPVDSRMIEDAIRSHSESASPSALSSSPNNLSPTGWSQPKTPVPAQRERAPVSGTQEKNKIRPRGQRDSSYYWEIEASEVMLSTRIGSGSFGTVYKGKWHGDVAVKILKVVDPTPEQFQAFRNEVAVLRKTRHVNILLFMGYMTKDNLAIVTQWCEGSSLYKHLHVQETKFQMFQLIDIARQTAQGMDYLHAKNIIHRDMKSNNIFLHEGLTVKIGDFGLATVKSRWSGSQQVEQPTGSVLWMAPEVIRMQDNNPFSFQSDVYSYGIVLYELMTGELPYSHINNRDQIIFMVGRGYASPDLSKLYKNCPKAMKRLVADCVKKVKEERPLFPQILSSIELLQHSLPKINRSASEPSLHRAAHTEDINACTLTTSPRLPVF
method: Competitive inhibition of CRAF (unknown origin) in presence of 0.5 uM ATP by ELISA
readoutName: pIC50
Numbers only, as −log10 of the molar value.

// pIC50 lookup, key: N#Cc1c(Oc2ccc(F)c(NC(=O)Cc3cccc(C(F)(F)F)c3)c2)ccc2nc(NC(=O)C3CC3)sc12
8.09

* * *

method: Volume of distribution at steady state in rat at 1 mg/kg, iv
Assay type: ADME, organism-based
Parameters: dose 1 mg/kg, route intravenous
conditionLabel: in vivo, read-out: Vdss
readoutName: Vd (L/kg)
Give bare numbers, in L/kg.

// Vd lookup, key: N#Cc1c(Oc2ccc(F)c(NC(=O)Cc3cccc(C(F)(F)F)c3)c2)ccc2nc(NC(=O)C3CC3)sc12
1.87
